biological target: EGFR L858R/C797S (BaF3 LC cells) (Homo sapiens, UniProt P00533, C797S/L858R); construct: expressed in transfected cells; host or cells: BaF3; test: EGFR degradation HTRF assay, BaF3 LC cells; assay type: cell-based; details: BaF3 LC, 16h treatment, maximum percentage of degradation; read-out: BaF3 LC Dmax (%)
Sequence (P00533 25-1210 C797S/L858R): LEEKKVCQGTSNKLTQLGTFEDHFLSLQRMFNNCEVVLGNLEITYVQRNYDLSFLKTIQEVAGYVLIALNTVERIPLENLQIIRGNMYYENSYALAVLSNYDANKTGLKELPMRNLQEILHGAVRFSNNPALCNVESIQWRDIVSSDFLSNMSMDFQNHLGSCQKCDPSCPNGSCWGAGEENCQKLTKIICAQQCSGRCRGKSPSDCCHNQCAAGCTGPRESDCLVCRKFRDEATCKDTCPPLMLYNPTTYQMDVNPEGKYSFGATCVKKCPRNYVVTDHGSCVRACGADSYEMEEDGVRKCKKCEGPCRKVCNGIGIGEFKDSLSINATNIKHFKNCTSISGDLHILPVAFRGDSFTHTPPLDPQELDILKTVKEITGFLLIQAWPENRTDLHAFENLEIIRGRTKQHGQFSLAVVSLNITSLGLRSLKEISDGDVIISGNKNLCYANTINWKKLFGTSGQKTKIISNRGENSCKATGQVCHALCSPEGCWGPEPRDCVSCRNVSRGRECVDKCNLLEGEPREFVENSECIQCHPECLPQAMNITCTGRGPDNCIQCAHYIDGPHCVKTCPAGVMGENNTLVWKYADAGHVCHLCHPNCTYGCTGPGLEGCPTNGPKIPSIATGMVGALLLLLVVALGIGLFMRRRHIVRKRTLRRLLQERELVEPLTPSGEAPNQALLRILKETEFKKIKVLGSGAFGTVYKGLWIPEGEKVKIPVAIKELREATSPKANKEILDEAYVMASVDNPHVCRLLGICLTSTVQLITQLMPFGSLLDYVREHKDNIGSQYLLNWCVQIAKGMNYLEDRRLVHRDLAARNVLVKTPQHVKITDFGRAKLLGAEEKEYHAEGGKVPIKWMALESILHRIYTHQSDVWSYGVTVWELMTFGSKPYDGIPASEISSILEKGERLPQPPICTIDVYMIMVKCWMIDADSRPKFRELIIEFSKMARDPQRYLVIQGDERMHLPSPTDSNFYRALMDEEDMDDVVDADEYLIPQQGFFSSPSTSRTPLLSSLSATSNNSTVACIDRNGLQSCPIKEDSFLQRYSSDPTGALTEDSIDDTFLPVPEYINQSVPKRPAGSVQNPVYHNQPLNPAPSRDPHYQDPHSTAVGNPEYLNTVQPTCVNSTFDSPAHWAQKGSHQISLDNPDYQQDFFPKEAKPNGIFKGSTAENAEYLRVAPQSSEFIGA
measurement_kind: Dmax (%)

[
  {
    "molecule": "CCOc1cc(N2CCC(N3CCN(CCc4cc(C)cc5c4oc(=O)n5C4CCC(=O)NC4=O)CC3)CC2)c(CC)cc1Nc1ncc(Br)c(Nc2ccc3nc(CC)ccc3c2P(C)(C)=O)n1 (centres unmarked)",
    "units_symbol": "%",
    "Dmax": 89.8
  },
  {
    "molecule": "CCOc1cc(N2CCC(N3CCN(CCc4cc5oc(=O)n(C6CCC(=O)NC6=O)c5cc4F)CC3)CC2)c(CC)cc1Nc1ncc(Br)c(Nc2cc(F)c3nc(CC)ccc3c2P(C)(C)=O)n1 (centres unmarked)",
    "units_symbol": "%",
    "Dmax": 92.9
  },
  {
    "molecule": "CCOc1cc(N2CCC(N3CCN(CCc4cccc5c4n(C4CC4)c(=O)n5C4CCC(=O)NC4=O)CC3)CC2)c(CC)cc1Nc1ncc(Br)c(Nc2ccc3nc(CC)ccc3c2P(C)(C)=O)n1 (centres unmarked)",
    "units_symbol": "%",
    "Dmax": 82.8
  },
  {
    "molecule": "CCc1cc(Nc2ncc(Br)c(Nc3cc(F)c4nc(C)ccc4c3P(C)(C)=O)n2)c(OC)cc1N1CCC(N2CCN(C(=O)[C@@H]3CCN(c4cc(F)c([C@H]5CCC(=O)NC5=O)c(F)c4)C3)CC2)CC1",
    "units_symbol": "%",
    "Dmax": 88.9
  },
  {
    "molecule": "CCOc1cc(N2CCC(N3CCN(CCc4cc(F)c(C5CCC(=O)NC5=O)c(F)c4)CC3)CC2)c(CC)cc1Nc1ncc(Br)c(Nc2ccc3nc(C)ccc3c2P(C)(C)=O)n1 (centres unmarked)",
    "units_symbol": "%",
    "Dmax": 73.4
  }
]
